biological target: Mouse GLP-1R (mouse) (UniProt O35659)
Sequence (O35659 22-463): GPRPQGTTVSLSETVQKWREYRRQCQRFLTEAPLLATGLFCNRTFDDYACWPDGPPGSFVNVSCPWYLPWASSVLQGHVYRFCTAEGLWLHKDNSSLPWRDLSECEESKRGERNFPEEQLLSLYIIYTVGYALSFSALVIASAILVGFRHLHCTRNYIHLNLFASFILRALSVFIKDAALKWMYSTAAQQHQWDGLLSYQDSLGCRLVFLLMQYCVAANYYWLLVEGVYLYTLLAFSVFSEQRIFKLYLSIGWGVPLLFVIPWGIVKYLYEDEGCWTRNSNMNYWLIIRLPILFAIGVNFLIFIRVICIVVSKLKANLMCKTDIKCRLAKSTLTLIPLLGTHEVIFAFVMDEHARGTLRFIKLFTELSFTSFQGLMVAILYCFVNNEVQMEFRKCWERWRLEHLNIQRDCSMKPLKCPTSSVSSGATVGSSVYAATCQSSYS
Ends that are not written are not given here. fatty chain = not defined here
Entries annotated with measured log10 EC50 (nM), Mouse GLP-1R activation, in vitro cell assay
Measured endpoint: log10 EC50 (nM), Mouse GLP-1R activation, in vitro cell assay (log10 of the value in nM)

Binder	Observed value
FFYSSPSAYLK(fatty chain)TGGPSSGAPPPS (reading uncertain; also: fatty chain not given here) [PEP19]	-0.67
FFYSSPSAKLETGGPSSGAPPPS [PEP13]	-1.29
FFYSSPSAK(fatty chain)LETGGPSSGAPPPS (reading uncertain; also: fatty chain not given here) [PEP17]	-0.17
FFYSSPSAYLEK(fatty chain)GGPSSGAPPPS (reading uncertain; also: fatty chain not given here) [PEP20]	-1.29
FFYSSPSAYLEKGGPSSGAPPPS [PEP16]	-1.00
FFYSSPSAYK(fatty chain)ETGGPSSGAPPPS (reading uncertain; also: fatty chain not given here) [PEP18]	-0.45
FFYSSPSAYLKTGGPSSGAPPPS [PEP15]	-0.34
FFYSSPSAYKETGGPSSGAPPPS [PEP14]	-1.47
